These entries and their values trace back to patent US20030186281A1.

Test system: tet operator sequence
TEST PROTOCOL: β-galactosidase activity of a tetracycline-regulated promoter in transformed E. coli with revTetR, in the presence and absence of anhydrotetracycline (atc)
Type: cell-based, Escherichia coli
CONDITION SUMMARY: RevTetR isolate cultured in the absence of anhydrotetracycline (ATC)
Threshold check on β-Galactosidase Activity, Cultured Without ATC: strictly below 100 is fulfilled; on or above 100 is not fulfilled.

The following molecules have reported results that may help.
MOLECULE	GROUP LABEL
TetRrev6-17: revTetR(BD) R94G G96W (protein, Modified tetracycline repressor, revTetR(BD) R94G G96W) MSRLDKSKVINSALELLNEVGIEGLTTRKLAQKLGVEQPTLYWHVKNKRALLDALAVEILARHHDYSLPAAGESWQSFLRNNAMSFRRALLRYGDWAKVHLGTRPDEKQYDTVETQLRFMTENGFSLRDGLYAISAVSHFTLGAVLEQQEHTAALTDRPAAPDENLPPLLREALQIMDSDDGEQAFLHGLESLIRGFEVQLTALLQIV	fulfilled
TetRrevAtc4-71: revTetR(BD) D53T L55M 56P A61S (protein, Modified tetracycline repressor, revTetR(BD) D53T L55M 56P A61S) MSRLDKSKVINSALELLNEVGIEGLTTRKLAQKLGVEQPTLYWHVKNKRALLTAMPVEILSRHHDYSLPAAGESWQSFLRNNAMSFRRALLRYRDGAKVHLGTRPDEKQYDTVETQLRFMTENGFSLRDGLYAISAVSHFTLGAVLEQQEHTAALTDRPAAPDENLPPLLREALQIMDSDDGEQAFLHGLESLIRGFEVQLTALLQIV	fulfilled
TetRrevAF4/9: revTetR(BD) L16R E19D E23D D95G V99A G102G (protein, Modified tetracycline repressor, revTetR(BD) L16R E19D E23D D95G V99A G102G) MSRLDKSKVINSALERLNDVGIDGLTTRKLAQKLGVEQPTLYWHVKNKRALLDALAVEILARHHDYSLPAAGESWQSFLRNNAMSFRRALLRYRGGAKAHLGTRPDEKQYDTVETQLRFMTENGFSLRDGLYAISAVSHFTLGAVLEQQEHTAALTDRPAAPDENLPPLLREALQIMDSDDGEQAFLHGLESLIRGFEVQLTALLQIV	not fulfilled

Could you now consider this next molecule?
Data request: Would you kindly verify if β-Galactosidase Activity, Cultured Without ATC of TetRrevAD3/9: revTetR(BD) E15Q L17L L55M I59R (protein, Modified tetracycline repressor, revTetR(BD) E15Q L17L L55M I59R) MSRLDKSKVINSALQLLNEVGIEGLTTRKLAQKLGVEQPTLYWHVKNKRALLDAMAVERLARHHDYSLPAAGESWQSFLRNNAMSFRRALLRYRDGAKVHLGTRPDEKQYDTVETQLRFMTENGFSLRDGLYAISAVSHFTLGAVLEQQEHTAALTDRPAAPDENLPPLLREALQIMDSDDGEQAFLHGLESLIRGFEVQLTALLQIV is strictly less than 100?
Data returned: fulfilled
